target: human LPAR1 (Homo sapiens, UniProt Q92633); assay: LPAR1 intracellular calcium mobilization assay (antagonist mode)
Sequence (Q92633 whole entry): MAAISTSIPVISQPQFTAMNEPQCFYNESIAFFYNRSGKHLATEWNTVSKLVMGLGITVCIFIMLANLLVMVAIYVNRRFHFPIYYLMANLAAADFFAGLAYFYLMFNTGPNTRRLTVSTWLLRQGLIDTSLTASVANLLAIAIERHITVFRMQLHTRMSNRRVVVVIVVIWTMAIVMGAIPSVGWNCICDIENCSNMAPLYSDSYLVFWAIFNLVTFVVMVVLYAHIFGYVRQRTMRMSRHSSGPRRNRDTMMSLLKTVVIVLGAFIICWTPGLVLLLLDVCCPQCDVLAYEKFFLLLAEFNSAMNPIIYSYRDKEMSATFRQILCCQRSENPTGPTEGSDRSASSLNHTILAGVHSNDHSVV
PROPERTY: EC50 (nM)

# MOLECULE, EC50, nM
data = [
    ("Cc1nc(-c2nnn(C)c2NC(=O)O[C@@H](c2ccccc2)C(F)F)ccc1NS(C)(=O)=O", 48.5),
    ("CNc1nc(-c2nnn(C)c2NC(=O)O[C@H](CF)c2ccccc2)ccc1NS(C)(=O)=O", 84.7),
    ("Cc1ncc(Cl)cc1[C@@H](C)OC(=O)Nc1c(-c2ccc(NS(C)(=O)=O)cn2)nnn1C", 83),
]

A: CCCCC[C@@H](C)OC(=O)Nc1c(-c2ccc(NS(C)(=O)=O)c(C)n2)nnn1C
B: Cc1nc(-c2nnn(C)c2NC(=O)OC(C)c2cc(Br)cnc2Cl)ccc1NS(C)(=O)=O (stereo not shown)
QUERY: Compare reported EC50 values for A and B . Which is lower? Write down the label of the entry you select.
RESULT: B
(B: 272 nM, A: 1740 nM)

a: Cc1nc(-c2nnn(C)c2NC(=O)O[C@H](C)c2cc(F)ncc2Cl)ccc1NS(C)(=O)=O
b: Cc1nc(-c2nnn(C)c2NC(=O)OC(C)c2ccncc2Cl)ccc1NS(C)(=O)=O (stereo not shown)
c: Cn1nnc(-c2ccc(NS(C)(=O)=O)cn2)c1NC(=O)O[C@H](CF)c1ccccc1
d: Cc1cccc(COC(=O)Nc2c(-c3ccc(NS(C)(=O)=O)cn3)nnn2C)c1
QUERY: Kindly order the items shown according to EC50, from the highest value down. Write the labels in rank order as requested.
RESULT: d, b, a, c
(d: 284 nM, b: 155 nM, a: 86.1 nM, c: 46.1 nM)

a: Cc1nc(-c2nnn(C)c2NC(=O)O[C@H](C)c2ccccc2Cl)ccc1NS(=O)(=O)CC#N
b: Cc1nc(-c2nnn(C)c2NC(=O)O[C@@H](c2cc(F)ccc2F)C(F)F)ccc1NS(C)(=O)=O
QUERY: Identify the entry with the larger EC50. Options: a and b Write down the label of the entry you select.
RESULT: a
(a: 88.4 nM, b: 34.1 nM)

A: CSc1ccccc1[C@@H](C)OC(=O)Nc1c(-c2ccc(NS(C)(=O)=O)c(C)n2)nnn1C
B: Cn1nnc(-c2ccc(NS(C)(=O)=O)cn2)c1NC(=O)OCc1cccc(Cl)c1
QUERY: Identify the entry with the larger EC50. Options: A and B Write down the label of the entry you select.
RESULT: B
(B: 117 nM, A: 64.9 nM)

a: CCc1nc(-c2nnn(C)c2NC(=O)O[C@H](C)c2cc(F)cnc2Cl)ccc1NS(C)(=O)=O
b: C[C@@H](OC(=O)Nc1c(-c2ccc(NS(C)(=O)=O)cn2)nnn1C)c1csnc1Cl
c: Cc1nc(-c2nnn(C)c2NC(=O)N[C@@H](c2ccccc2)C(F)F)ccc1NS(C)(=O)=O
d: Cn1nnc(-c2ccc(NS(C)(=O)=O)cn2)c1NC(=O)O[C@@H](c1ccccc1)C(F)F
e: Cc1nc(-c2nnn(C)c2NC(=O)O[C@H](C)c2cccc(F)c2)ccc1NS(=O)(=O)C1CCC1
QUERY: Kindly order the items shown according to EC50, from the highest value down. Write the labels in rank order as requested.
RESULT: c, e, a, b, d
(c: 1020 nM, e: 434 nM, a: 127 nM, b: 50.2 nM, d: 8.2 nM)

I: Cc1nc(-c2nnn(C)c2NC(=O)O[C@H](C)c2ccccc2Cl)ccc1N(C)S(C)(=O)=O
II: Cc1nc(-c2nnn(C)c2NC(=O)O[C@H](CF)c2ccccc2)c(F)cc1NS(C)(=O)=O
QUERY: Compare reported EC50 values for I and II . Which is lower? Write down the label of the entry you select.
RESULT: I
(I: 55.4 nM, II: 162 nM)

1: C[C@@H](OC(=O)Nc1c(-c2ccc(NS(=O)(=O)C3CNC3)cn2)nnn1C)c1cccnc1Cl
2: C=Cc1ncccc1[C@@H](C)OC(=O)Nc1c(-c2ccc(NS(C)(=O)=O)c(C)n2)nnn1C
QUERY: Compare reported EC50 values for 1 and 2 . Which is lower? Write down the label of the entry you select.
RESULT: 2
(2: 1420 nM, 1: 5250 nM)

1: Cc1ccncc1C(C)OC(=O)Nc1c(-c2ccc(NS(C)(=O)=O)c(C)n2)nnn1C (stereo not shown)
2: Cn1nnc(-c2ccc(NS(C)(=O)=O)cn2)c1NC(=O)OCc1cccc(F)c1
3: Cc1nc(-c2nnn(C)c2NC(=O)O[C@H](C)c2cncnc2C)ccc1NS(C)(=O)=O
4: Cc1nc(-c2nnn(C)c2NC(=O)O[C@H](C)c2cccc(F)c2)ccc1NS(=O)(=O)C(C)C
5: C[C@@H](OC(=O)Nc1c(-c2ccc(NS(C)(=O)=O)cn2)nnn1C)c1cc(F)ccc1F
QUERY: Kindly order the items shown according to EC50, from the highest value down. Write the labels in rank order as requested.
RESULT: 1, 3, 4, 2, 5
